system: Human alphaherpesvirus 1; test: Antiviral activity against HSV1 KOS in HEL cells; type: functional, organism-based; conditions: Human alphaherpesvirus 1, KOS
Assign EC50 to each entry below.
Value expressed in µM; do not type the unit.

Record Cc1c(O)c(=O)ccn1[C@H]1CS[C@@H](CO)O1 (racemic) , field EC50: 32

So, Cc1c(O)c(=O)ccn1[C@H]1CC[C@H](CO)O1 ? Its EC50 was 177

response.value for Nc1nc2c(ncn2COCCO)c(=O)[nH]1 [ACYCLOVIR] (field: EC50) = 1.12

Given item Cc1c(O)c(=O)ccn1[C@@H]1CS[C@@H](CO)O1 (racemic) , the value recorded as its EC50 is 40

The compound listed as Nc1ccn(C[C@@H](CO)OCP(=O)(O)O)c(=O)n1 [CIDOFOVIR] has a reported EC50 of 0.57

Query Cc1c(O)c(=O)ccn1[C@@H]1CC[C@@H](CO)O1 yields EC50 of 177

// recorded EC50 for Cc1c(O)c(=O)ccn1[C@H]1CC[C@@H](CO)O1 : 40
